Test: Oral bioavailability / pharmacokinetic study (serum magnolol by HPLC)
Format: in vivo
Conditions: male, Sprague-Dawley (SD), rat, ip, 100 mg/kg, IP (intraperitoneal route), 100 mg kg^−1, male SD rats, read-out: Abs T1/2 (absorption half-life)
parameter: half-life (min)
Enter your answer as a number in min; do not include the unit.

QUERY: Return half-life (reported value) for this molecule: C=CCc1ccc(O)c(-c2cc(CC=C)ccc2O)c1 [Magnolol]
RESULT: 17.1

Source: paper PMC7285002
